Cited source for all entries: patent US20260274955A1

Molecular target: T1, anti-CD28 Fab (SEQ ID NOs: 202, 203)
T1 construct: biotinylated when captured in the phage ELISAs
T1 sequence (VH, as listed by the source, chain 1 of 2): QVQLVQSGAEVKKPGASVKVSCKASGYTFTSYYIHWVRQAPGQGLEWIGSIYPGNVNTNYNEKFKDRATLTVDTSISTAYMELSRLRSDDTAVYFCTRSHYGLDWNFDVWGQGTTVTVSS
T1 sequence (VL, as listed by the source, chain 2 of 2): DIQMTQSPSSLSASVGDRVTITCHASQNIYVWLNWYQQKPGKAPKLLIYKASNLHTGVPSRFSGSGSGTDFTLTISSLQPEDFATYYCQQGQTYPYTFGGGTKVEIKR
Experiment: binding ELISA, peptide captured, anti-CD28 Fab titrated
No end group written: not given here.
readoutType: log10 EC50 (log10 of the value in nM)
Values reflect log10 of reported EC50 (nM).

Example cases with answers are listed next.
{"binder": "SCSAGAAYYWPWCL (cysteine pairing not given here; also: biotinylated, site not given here) [Peptide-103]", "log10 EC50": 2.05}
{"binder": "TCSAGAAYSWPACF (cysteine pairing not given here; also: biotinylated, site not given here) [Peptide-98]", "log10 EC50": 1.39}
{"binder": "LCAAGATYPWPLCL (cysteine pairing not given here; also: biotinylated, site not given here) [Peptide-96]", "log10 EC50": 0.75}

State the recorded log10 EC50 for this entry: TCSAGATWPWPICL (cysteine pairing not given here; also: biotinylated, site not given here) [Peptide-89]
0.32

Given TCSAGASYPWPLCL (cysteine pairing not given here; also: biotinylated, site not given here) [Peptide-91] , state its recorded log10 EC50.
0.72

I have this binder here, TCAAGAAWGWPLCF (cysteine pairing not given here; also: biotinylated, site not given here) [Peptide-95] , and I need its recorded log10 EC50.
0.75

Give the measured log10 EC50 of SCAAGASYAWPYCL (cysteine pairing not given here; also: biotinylated, site not given here) [Peptide-44] .
1.28

Value lookup for log10 EC50; key = TCAAGAHYPWPACL (cysteine pairing not given here; also: biotinylated, site not given here) [Peptide-106]
0.62

Requested field: log10 EC50. Item: TCSAGATYTWPKCF (cysteine pairing not given here; also: biotinylated, site not given here) [Peptide-93]
1.20
